# experimental system: B2 bradykinin receptor (Homo sapiens, UniProt P30411)
# Sequence (P30411 whole entry): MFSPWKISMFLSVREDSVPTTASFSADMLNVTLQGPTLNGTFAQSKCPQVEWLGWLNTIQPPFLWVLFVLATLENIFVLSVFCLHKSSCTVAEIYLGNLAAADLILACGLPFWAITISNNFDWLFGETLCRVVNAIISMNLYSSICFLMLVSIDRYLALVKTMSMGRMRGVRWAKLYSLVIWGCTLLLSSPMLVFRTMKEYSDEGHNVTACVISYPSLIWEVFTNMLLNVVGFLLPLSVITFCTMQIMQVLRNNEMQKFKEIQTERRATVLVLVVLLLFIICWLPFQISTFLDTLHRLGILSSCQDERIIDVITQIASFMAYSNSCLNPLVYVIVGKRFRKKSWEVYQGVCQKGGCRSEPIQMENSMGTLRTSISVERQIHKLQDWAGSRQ
# procedure details: Displacement of [3H]BK from human B2 receptor transfected in CHO cells
pKi: −log10 of the molar value.
Use pKi to assign classes; range list: low bin (below 6), mid bin (6 to below 7), high bin (7 or more)

• Cc1ccc2cccc(OCc3c(Cl)ccc(S(=O)(=O)NC(C)(C)C(=O)NCCc4ccccc4)c3Cl)c2n1 = low bin
• Cc1cc(C)c2cccc(OCc3c(Cl)ccc(S(=O)(=O)NC(C)(C)C(=O)N4CCN(C(=O)C[C@@H](N)CCCN(C)C)CC4)c3Cl)c2n1 = high bin
• Cc1ccc2cccc(OCc3c(Cl)ccc(S(=O)(=O)NC(C)(C)C(=O)Nc4ccccc4)c3Cl)c2n1 = low bin
• COCCNC(=O)C(C)(C)NS(=O)(=O)c1ccc(Cl)c(COc2cccc3ccc(C)nc23)c1Cl = low bin
• Cc1ccc2cccc(OCc3c(Cl)ccc(S(=O)(=O)NC(C)(C)C(=O)NCCCNCc4ccoc4)c3Cl)c2n1 = mid bin
• CC(=O)N[C@@H](CCCCN(C)C)C(=O)N1CCN(C(=O)C(C)(C)NS(=O)(=O)c2ccc(Cl)c(COc3cccc4ccc(C)nc34)c2Cl)CC1 = high bin
• Cc1ccc2cccc(OCc3c(Cl)ccc(S(=O)(=O)NC(C)(C)C(=O)NCCCc4ccccc4)c3Cl)c2n1 = low bin
• Cc1ccc2cccc(OCc3c(Cl)ccc(S(=O)(=O)NC(C)(C)C(=O)NCCN4CCOCC4)c3Cl)c2n1 = low bin
• Cc1ccc2cccc(OCc3c(Cl)ccc(S(=O)(=O)NC(C)(C)C(=O)N4CCN(C(=N)NCCCCCCN)CC4)c3Cl)c2n1 = high bin
• Cc1ccc2cccc(OCc3c(Cl)ccc(S(=O)(=O)NC(C)(C)C(=O)NCCCN(C)C)c3Cl)c2n1 = mid bin

* * *

# experimental system: B2 bradykinin receptor (Homo sapiens, UniProt P30411)
# Sequence (P30411 whole entry): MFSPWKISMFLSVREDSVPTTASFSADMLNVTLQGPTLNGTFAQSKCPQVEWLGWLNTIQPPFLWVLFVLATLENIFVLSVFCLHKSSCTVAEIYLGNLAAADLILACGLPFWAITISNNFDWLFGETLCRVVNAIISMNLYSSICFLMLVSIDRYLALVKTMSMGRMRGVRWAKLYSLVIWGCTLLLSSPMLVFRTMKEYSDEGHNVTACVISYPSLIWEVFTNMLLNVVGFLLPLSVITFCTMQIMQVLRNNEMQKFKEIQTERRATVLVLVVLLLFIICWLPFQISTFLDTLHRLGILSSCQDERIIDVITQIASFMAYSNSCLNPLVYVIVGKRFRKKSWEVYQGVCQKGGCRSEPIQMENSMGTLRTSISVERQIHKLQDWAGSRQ
# procedure details: Displacement of [3H]BK from human B2 receptor transfected in CHO cells
pKi: −log10 of the molar value.
List of pKi values.
result type: pKi

* Cc1ccc2cccc(OCc3c(Cl)ccc(S(=O)(=O)NC(C)(C)C(=O)NCCCNCc4ccccc4)c3Cl)c2n1 | 6.70
* Cc1ccc2cccc(OCc3c(Cl)ccc(S(=O)(=O)NC(C)(C)C(=O)NCCCN)c3Cl)c2n1 | 6.80
* Cc1ccc2cccc(OCc3c(Cl)ccc(S(=O)(=O)NC(C)(C)C(=O)NCCCNCc4ccc(N(C)C)cc4)c3Cl)c2n1 | 6.80

* * *

List of Ki values.
# experimental system: B2 bradykinin receptor (Homo sapiens, UniProt P30411)
# procedure details: Displacement of [3H]BK from human B2 receptor transfected in CHO cells
result type: Ki (nM)

- Cc1ccc2cccc(OCc3c(Cl)ccc(S(=O)(=O)NC(C)(C)C(=O)N4CCN(CCCCCCN)CC4)c3Cl)c2n1: 2.51
- Cc1ccc2cccc(OCc3c(Cl)ccc(S(=O)(=O)NC(C)(C)C(=O)N4CCN(C(=O)C[C@@H](N)CCCCN(C)C)CC4)c3Cl)c2n1: 0.631
- Cc1ccc2cccc(OCc3c(Cl)ccc(S(=O)(=O)NC(C)(C)C(=O)N4CCNCC4)c3Cl)c2n1: 25.1
- Cc1ccc(CNCCCNC(=O)C(C)(C)NS(=O)(=O)c2ccc(Cl)c(COc3cccc4ccc(C)nc34)c2Cl)cc1: 200

* * *

List of Kb values.
# experimental system: B2 bradykinin receptor (Homo sapiens, UniProt P30411)
# procedure details: Activity at human B2 receptor transfected in CHO cells assessed as ability to antagonize BK-induced inositol-phosphate accumulation
# Format: functional, cell-based
# recorded conditions: read-out: pA2 (converted)
result type: Kb (nM)

• Cc1ccc2cccc(OCc3c(Cl)ccc(S(=O)(=O)NC(C)(C)C(=O)N4CCN(C(=O)CN5CCNCC5)CC4)c3Cl)c2n1 = 25.1
• Cc1ccc2cccc(OCc3c(Cl)ccc(S(=O)(=O)NC(C)(C)C(=O)N4CCN(C(=O)[C@@H](N)CCCN(C)C)CC4)c3Cl)c2n1 = 25.1
• CC(=O)N[C@@H](CCCCN(C)C)C(=O)N1CCN(C(=O)C(C)(C)NS(=O)(=O)c2ccc(Cl)c(COc3cccc4ccc(C)nc34)c2Cl)CC1 = 20
• Cc1ccc2cccc(OCc3c(Cl)ccc(S(=O)(=O)NC(C)(C)C(=O)N4CCN(C(=N)NCCCCCCN)CC4)c3Cl)c2n1 = 7.94

* * *

# experimental system: B2 bradykinin receptor (Homo sapiens, UniProt P30411)
# procedure details: Displacement of [3H]BK from human B2 receptor transfected in CHO cells
# Type: cell-based
result type: Ki (nM)

- Cc1ccc2cccc(OCc3c(Cl)ccc(S(=O)(=O)NC(C)(C)C(=O)N4CCN(C(=O)CN5CCNCC5)CC4)c3Cl)c2n1: 3.98
- Cc1ccc2cccc(OCc3c(Cl)ccc(S(=O)(=O)NC(C)(C)C(=O)NCCCNCc4c[nH]cn4)c3Cl)c2n1: 158
- Cc1ccc2cccc(OCc3c(Cl)ccc(S(=O)(=O)NC(C)(C)C(=O)NCCCNCc4ccc(F)cc4)c3Cl)c2n1: 398
- COc1ccc(CNCCCNC(=O)C(C)(C)NS(=O)(=O)c2ccc(Cl)c(COc3cccc4ccc(C)nc34)c2Cl)cc1: 200
- Cc1ccc2cccc(OCc3c(Cl)ccc(S(=O)(=O)NC(C)(C)C(=O)N4CCN(C(=O)[C@@H](N)CCCCN(C)C)CC4)c3Cl)c2n1: 2
- Cc1cc(C)c2cccc(OCc3c(Cl)ccc(S(=O)(=O)NC(C)(C)C(=O)N4CCN(C(=N)NCCCN)CC4)c3Cl)c2n1: 1
- Cc1ccc2cccc(OCc3c(Cl)ccc(S(=O)(=O)NC(C)(C)C(=O)NCCCNC(=O)c4ccc(C(=N)N)cc4)c3Cl)c2n1: 20

* * *

List of Ki values.
# experimental system: B2 bradykinin receptor (Homo sapiens)
# procedure details: Displacement of [3H]BK from human B2 receptor transfected in CHO cells
result type: Ki (nM)

- Cc1ccc2cccc(OCc3c(Cl)ccc(S(=O)(=O)NC(C)(C)C(=O)N4CCCNCCC4)c3Cl)c2n1: 100
- Cc1ccc2cccc(OCc3c(Cl)ccc(S(=O)(=O)NC(C)(C)C(=O)NCCN=C(N)N)c3Cl)c2n1: 20
- Cc1ccc2cccc(OCc3c(Cl)ccc(S(=O)(=O)NC(C)(C)C(=O)N4CCN(C(=N)N)CC4)c3Cl)c2n1: 3.98
- Cc1cc(C)c2cccc(OCc3c(Cl)ccc(S(=O)(=O)NC(C)(C)C(=O)NCCCNc4ccc(C(=N)N)cc4)c3Cl)c2n1: 7.94

* * *

# experimental system: B2 bradykinin receptor (Homo sapiens, UniProt P30411)
# procedure details: Activity at human B2 receptor transfected in CHO cells assessed as ability to antagonize BK-induced inositol-phosphate accumulation
# Format: functional, cell-based
# recorded conditions: read-out: pA2 (converted)
List of Kb values.
result type: Kb (nM)

• Cc1ccc2cccc(OCc3c(Cl)ccc(S(=O)(=O)NC(C)(C)C(=O)N4CCN(C(=O)C[C@@H](N)CCCN(C)C)CC4)c3Cl)c2n1 = 39.8
• Cc1ccc2cccc(OCc3c(Cl)ccc(S(=O)(=O)NC(C)(C)C(=O)N4CCN(CCCCCCN)CC4)c3Cl)c2n1 = 20
• Cc1cc(C)c2cccc(OCc3c(Cl)ccc(S(=O)(=O)NC(C)(C)C(=O)N4CCN(C(=O)C[C@@H](N)CCCN(C)C)CC4)c3Cl)c2n1 = 2.51
• Cc1ccc2cccc(OCc3c(Cl)ccc(S(=O)(=O)NC(C)(C)C(=O)N4CCN(C(=N)NCCCN)CC4)c3Cl)c2n1 = 11
• Cc1cc(C)c2cccc(OCc3c(Cl)ccc(S(=O)(=O)NC(C)(C)C(=O)N4CCN(C(=O)[C@@H](N)CCCCN(C)C)CC4)c3Cl)c2n1 = 3.16
• Cc1cc(C)c2cccc(OCc3c(Cl)ccc(S(=O)(=O)NC(C)(C)C(=O)N4CCN(C(=N)NCCCN)CC4)c3Cl)c2n1 = 2.51
• Cc1ccc2cccc(OCc3c(Cl)ccc(S(=O)(=O)NC(C)(C)C(=O)N4CCN(C(=N)N)CC4)c3Cl)c2n1 = 39.8
